For each record, write down the corresponding pIC50.
Biological target: BRD4 (Homo sapiens, UniProt O60885)
Assay: Time Resolved Fluorescence Resonance Energy Transfer (TR-FRET) binding assay, BRD4
Settings: one of the FRET assays described; read-out: FRET BRD4 IC50
pIC50: −log10 of the molar value.

Query: If you can, please state the reported pIC50 value of Cc1noc(C)c1-c1cnc2c3ccc(C(C)(C)O)cc3n(C(c3cc(F)cc(F)c3)C3CCOCC3)c2c1 (single isomer, unassigned) [Example 129] .
Result: > 5.82

Query: Name the reported pIC50 value associated with the molecule Cc1nnn(C)c1-c1cnc2c3ccc(C(C)(C)O)cc3n(C(CCC(F)(F)F)c3ccccn3)c2c1 (single isomer, unassigned) [Example 253]
Result: > 8.30

Query: Quick check: pIC50 of Cc1nnn(C)c1-c1cnc2c3ccc(S(C)(=O)=O)cc3n(C(c3ccccc3)C3CCC(F)(F)CC3)c2c1 (single isomer, unassigned) [Example 156] ?
Result: > 8.30

Query: State the recorded pIC50 for this entry: [2H]C([2H])([2H])c1nnn(C)c1-c1cnc2c3ccc(C(C)(C)O)cc3n(C(c3ccncc3F)C3CCOCC3)c2c1 (single isomer, unassigned) [Example 310]
Result: > 8.30

Query: Look at this molecule and give its reported pIC50. Cc1nnn(C)c1-c1cnc2c3c(S(C)(=O)=O)cccc3n([C@H](c3ccccc3)C3CCOCC3)c2c1
Result: > 8.30

Query: What measured pIC50 goes with Cc1noc(C)c1-c1cnc2c3c(C(C)(C)O)cccc3n(Cc3ccccc3)c2c1 ?
Result: > 5.82

Query: # get_value(readout='pIC50', item= Cc1noc(C)c1-c1cnc2c3ccc(C(C)(C)O)cc3n(C(CCC(F)(F)F)c3cnoc3)c2c1 (single isomer, unassigned) [Example 36] )
Result: > 7.60

Query: Using the record for Cn1nncc1-c1cnc2c3ccc(C(C)(C)O)cc3n(C(c3ccc(F)cc3)C3CCOCC3)c2c1 (single isomer, unassigned) [Example 67] , report its pIC50.
Result: > 7.60

Query: What value of measured pIC50 is listed for [2H]C([2H])([2H])n1nnc(OC)c1-c1cnc2c3ccc(C(C)(C)O)cc3n([C@H](c3ccccc3)C3CCOCC3)c2c1 ?
Result: > 8.30

Query: Item [2H]C([2H])([2H])c1nnn(C)c1-c1cnc2c3c(F)cc(S(C)(=O)=O)cc3n([C@H](c3ccccc3)C3CCOCC3)c2c1 has what recorded pIC50?
Result: > 8.30

Query: # input molecule: Cn1nnc(Br)c1-c1cnc2c3cc(Br)c(C(C)(C)O)cc3n([C@H](c3ccccc3)C3CCOCC3)c2c1 ; wanted: its pIC50
Result: > 8.30

Query: Please give the measured pIC50 for this molecule: Cc1nnn(C)c1-c1cnc2c3ccc(C(C)(C)O)cc3n(C(c3c(F)cc(F)cc3F)C3CCOCC3)c2c1 (single isomer, unassigned) [Example 102]
Result: > 8.30

Query: Endpoint output: pIC50 of Cc1noc(C)c1-c1cnc2c3ccc(CC(C)(C)O)cc3n([C@H](c3ccccc3)C3CCOCC3)c2c1 . Value?
Result: > 8.30

Query: For CNc1nnn(C)c1-c1cnc2c3ccc(C(C)(C)O)cc3n([C@H](c3ccccc3)C3CCOCC3)c2c1 , what is its reported pIC50?
Result: > 8.30

Query: Entry [2H]c1c(C([2H])(C2CCOCC2)n2c3cc(C(C)(C)O)ccc3c3ncc(-c4c(C)noc4C([2H])([2H])[2H])cc32)noc1C([2H])([2H])[2H] (stereo not drawn) [Example 328] has what pIC50?
Result: > 7.60

Query: If you can, please state the reported pIC50 value of Cc1nnn(C)c1-c1cnc2c3ccc(C(C)(C)O)cc3n([C@@H](c3ccccc3)C3CCOCC3)c2c1 (single isomer, unassigned) .
Result: > 8.30

Query: Tell me the measured pIC50 of Cc1noc(C)c1-c1cnc2c3ccc(C(C)(C)O)cc3n(C(CCC(F)(F)F)c3cnoc3)c2c1 (single isomer, unassigned) [Example 37] , please.
Result: > 8.30

Query: Quick check: pIC50 of C=C(C)c1ccc2c3ncc(-c4c(C)nnn4C)cc3n([C@H](c3ccccc3)C3CCOCC3)c2c1 ?
Result: > 8.30
